| COMPOUND | melting point |
| --- | --- |
| C/C(=N\N=c1/scc(-c2ccccc2)n1N)c1cccs1 [11a] | 166 to 168 °C |
| CC(=NN=C1SC(=NNc2ccc(Cl)cc2)C(=O)N1N)c1cccs1 [8b] | 177 to 179 °C |
| C/C(=N\N=c1/scc(-c2ccc(Cl)cc2)n1N)c1cccs1 [11c] | 180 to 182 °C |
| C/C(=N\N=c1/sc(/N=N/c2ccc(Cl)cc2Cl)c(C)n1N)c1cccs1 [4d] | 227 to 229 °C |
| C/C(=N\N=c1/sc(/N=N/c2ccc(Cl)cc2)c(C)n1N)c1cccs1 [4c] | 205 to 207 °C |
| C/C(=N\N=c1/scc(-c2ccc([N+](=O)[O-])cc2)n1N)c1cccs1 [11d] | 194 to 196 °C |

Origin of values: paper PMC9320749
